# Ratio EC50 values compiled below
test system: Oculimacula yallundae; assay: Resistance index, ratio of EC50 for sterol 14alpha-demethylation inhibitor-resistant Oculimacula yallundae TriR2 to EC50 for wild type Oculimacula yallundae TriS by germ tube elongation assay; type: functional
Please give the numeric answer without any surrounding text.

>  <molecule>
Cc1cc(C2CC2)nc(Nc2ccccc2)n1

>  <measured-result>
1

$$$$
>  <molecule>
CC1(C(=O)Nc2ccc(O)c(Cl)c2Cl)CCCCC1

>  <measured-result>
1.2

$$$$
>  <molecule>
CC1=C(C(=O)Nc2ccccc2)SCCO1

>  <measured-result>
1.2

$$$$
>  <molecule>
Cc1cc(C)nc(Nc2ccccc2)n1

>  <measured-result>
1.2

$$$$
>  <molecule>
Cc1cccc(N(C)C(=S)Oc2ccc3ccccc3c2)c1 [TOLNAFTATE]

>  <measured-result>
1

$$$$
>  <molecule>
CC(C)CC(C)c1sccc1NC(=O)c1cn(C)nc1C(F)(F)F (centres undefined)

>  <measured-result>
1

$$$$
>  <molecule>
CC(C)(C)C(O)(CCc1ccc(Cl)cc1)Cn1cncn1 (centres undefined)

>  <measured-result>
100

$$$$
>  <molecule>
Clc1ccc(C2(Cn3cncn3)CC(Br)CO2)c(Cl)c1 (centres undefined)

>  <measured-result>
40

$$$$

Now let's try a different one.
# lookup: Ratio EC50 of OC(Cc1ccccc1Cl)(Cn1nc[nH]c1=S)C1(Cl)CC1 (centres undefined)
1.3

====

system: Oculimacula yallundae; test: Fungicidal activity against prochloraz-susceptible Oculimacula yallundae isolate ProS assessed as inhibition of germ tube elongation incubated at 19 degC in dark for 48 hr; assay type: functional, organism-based
measurement-label: log10 EC50 (log10 of the value in µg/mL)
In our notation, the value equals log10 of EC50 in µg/mL.

Some solved cases for reference:
>  <compound>
Clc1ccc(C2(Cn3cncn3)CC(Br)CO2)c(Cl)c1 (stereo not drawn)

>  <tested-target>
Oculimacula yallundae

>  <log10 EC50>
-0.10

$$$$
>  <compound>
CC(C)(C)C(O)(CCc1ccc(Cl)cc1)Cn1cncn1 (stereo not drawn)

>  <tested-target>
Oculimacula yallundae

>  <log10 EC50>
-0.30

$$$$
>  <compound>
CCCN(CCOc1c(Cl)cc(Cl)cc1Cl)C(=O)n1ccnc1

>  <tested-target>
Oculimacula yallundae

>  <log10 EC50>
-2.40

$$$$
>  <compound>
CCCOC/C(=N\c1ccc(Cl)cc1C(F)(F)F)n1ccnc1

>  <tested-target>
Oculimacula yallundae

>  <log10 EC50>
0.95

$$$$
>  <compound>
Fc1ccc([C@]2(Cn3cncn3)O[C@H]2c2ccccc2Cl)cc1 (relative stereo)

>  <tested-target>
Oculimacula yallundae

>  <log10 EC50>
-0.52

$$$$

Value wanted: log10 EC50 (Oculimacula yallundae) of entry `C[Si](Cn1cncn1)(c1ccc(F)cc1)c1ccc(F)cc1`
-0.70

Value wanted: log10 EC50 (Oculimacula yallundae) of entry OC(Cc1ccccc1Cl)(Cn1nc[nH]c1=S)C1(Cl)CC1 (stereo not drawn)
-1.22

Value wanted: log10 EC50 (Oculimacula yallundae) of entry CC(C1CC1)C(O)(Cn1cncn1)c1ccc(Cl)cc1 (stereo not drawn)
0.48

====

tested on: Oculimacula yallundae; assay: Fungicidal activity against prochloraz-susceptible Oculimacula yallundae isolate ProS assessed as inhibition of mycelial growth in presence of 10 g glucose incubated at 19 degC in dark for 4 weeks; format: functional, organism-based; conditions: 672 h
# EC50 values compiled below
Give the number; µg/mL is assumed, so skip it.

>  <molecule>
C[Si](Cn1cncn1)(c1ccc(F)cc1)c1ccc(F)cc1 [FLUSILAZOLE]

>  <EC50, µg/mL>
0.4

$$$$

Now let's try a different one.
# lookup: EC50 of Fc1ccc([C@]2(Cn3cncn3)O[C@H]2c2ccccc2Cl)cc1 (relative stereo) [EPOXICONAZOLE]
0.3
